# protocol.description: molar heat capacity at constant pressure
# measurement.conditions: 45 K; 101.33 kPa; Crystal; relaxation calorimetry
Readings of molar heat capacity at constant pressure for the listed molecules
A number alone suffices; assume J/K/mol.

Worked set:
Can you share its molar heat capacity at constant pressure? I mean this molecule: OC[C@@H](O)[C@@H](O)CO 26.81

What about OC[C@H](O)C(O)[C@@H](O)CO [L-(-)-arabitol] ? 31.57

Can you handle OC[C@@H](O)C(O)[C@H](O)CO next? 31.26

Do the same for O[C@H]1[C@H](O)[C@@H](O)[C@H](O)[C@@H](O)[C@H]1O [cis-1,2,3,5-trans-4,6-cyclohexanehexol] please 27.69

Similarly, OC[C@@H](O)[C@@H](O)[C@H](O)[C@H](O)CO ? 35.64

From here, focus on the item given below.
Entry under review: OC[C@@H](O)[C@H](O)[C@@H](O)CO . Reported molar heat capacity at constant pressure? 28.76
